Hello, the source for this data is patent US7960376B2, in case you need it.

Tested target: human CB2 receptor (hCB2) (Homo sapiens, UniProt P34972)
Sequence (P34972 whole entry): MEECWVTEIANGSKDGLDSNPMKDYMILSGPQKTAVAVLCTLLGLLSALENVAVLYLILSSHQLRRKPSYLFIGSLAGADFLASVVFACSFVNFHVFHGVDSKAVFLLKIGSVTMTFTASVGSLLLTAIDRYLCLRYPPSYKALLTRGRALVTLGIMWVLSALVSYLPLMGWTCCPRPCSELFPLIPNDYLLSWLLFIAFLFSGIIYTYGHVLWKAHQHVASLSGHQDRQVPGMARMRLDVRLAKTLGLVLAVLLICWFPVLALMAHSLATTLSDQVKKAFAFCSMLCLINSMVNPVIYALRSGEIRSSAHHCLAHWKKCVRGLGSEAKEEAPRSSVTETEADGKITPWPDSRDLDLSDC
Assay summary: cell-based
Assay type: cell-based
Recorded conditions: intracellular cAMP, CHO-K1 cells, NKH-477 prestimulated; + agonist, − inverse agonist
Result type: hCB2 EC50 range

For orientation, consider the following solved cases.
Entry smiles: CC(C)CNC(=O)c1ccc2c(c1)N(S(C)(=O)=O)CCS2
Result type: hCB2 EC50 range
Recorded measurement: +E
//
Entry smiles: O=C(c1ccc2c(c1)N(S(=O)(=O)c1ccc(F)cc1)CCS2)N1CCCC1
Result type: hCB2 EC50 range
Recorded measurement: +C
//
Entry smiles: CCN(CC)C(=O)c1ccc2c(c1)N(S(=O)(=O)c1ccccc1)CCS2
Result type: hCB2 EC50 range
Recorded measurement: +C
//
Entry smiles: CCc1noc(-c2ccc3c(c2)N(S(=O)(=O)c2ccc(C(F)(F)F)cc2)CCS3)n1
Result type: hCB2 EC50 range
Recorded measurement: +B
//
Entry smiles: O=S(=O)(c1ccc(C(F)(F)F)cc1)N1CCSc2ccc(-c3nc(-c4ccccn4)no3)cc21
Result type: hCB2 EC50 range
Recorded measurement: +B

Please give hCB2 EC50 range, item by item, for the list that follows.
1. CC(C)CNC(=O)c1ccc2c(c1)N(C(=O)c1ccc(Cl)cc1)CCS2
2. CC(C)NC(=O)c1ccc2c(c1)N(C(=O)c1ccc(F)cc1)CCS2
3. CCN(CC)C(=O)c1ccc2c(c1)N(S(=O)(=O)c1ccc(F)cc1)CCS2

**A:**
1. −E
2. +E
3. +D

----------
Tested target: rat CB2 receptor (rCB2) (Rattus norvegicus, UniProt Q9QZN9)
Sequence (Q9QZN9 whole entry): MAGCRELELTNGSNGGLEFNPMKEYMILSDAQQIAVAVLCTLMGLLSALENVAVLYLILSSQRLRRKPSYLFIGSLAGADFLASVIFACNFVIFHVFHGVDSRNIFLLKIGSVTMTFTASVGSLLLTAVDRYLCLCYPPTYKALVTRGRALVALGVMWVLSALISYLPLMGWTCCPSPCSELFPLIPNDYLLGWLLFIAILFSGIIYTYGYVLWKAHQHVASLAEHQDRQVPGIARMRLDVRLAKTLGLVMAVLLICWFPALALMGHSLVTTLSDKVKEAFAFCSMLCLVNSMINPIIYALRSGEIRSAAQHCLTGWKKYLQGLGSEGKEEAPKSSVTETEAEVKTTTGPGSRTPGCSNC
Assay summary: cell-based
Format: cell-based
Recorded conditions: intracellular cAMP, CHO-K1 cells, NKH-477 prestimulated; + agonist, − inverse agonist
Result type: rCB2 EC50 range

For orientation, consider the following solved cases.
Entry smiles: CC(C)(C)NC(=O)c1ccc2c(c1)N(S(=O)(=O)c1ccc(F)cc1)CCS2
rCB2 EC50 range: +A

Entry smiles: O=C(NC1CCCC1)c1ccc2c(c1)N(S(=O)(=O)c1ccc(Cl)cc1)CCO2
rCB2 EC50 range: +A

Entry smiles: CC(C)NC(=O)c1ccc2c(c1)N(C(=O)c1ccc(Cl)cc1)CCS2
rCB2 EC50 range: +D

Entry smiles: O=S(=O)(c1ccc(F)cc1)N1CCSc2ccc(-c3nc(-c4ccccn4)no3)cc21
rCB2 EC50 range: +B

Entry smiles: CC(C)(C)NC(=O)c1ccc2c(c1)N(S(=O)(=O)c1ccccc1)CCC(C)(C)S2
rCB2 EC50 range: +B

Please give rCB2 EC50 range, item by item, for the list that follows.
1. CC(C)NC(=O)c1ccc2c(c1)N(S(=O)(=O)c1ccccc1)CCS2
2. CC(C)CNC(=O)c1ccc2c(c1)N(S(=O)(=O)c1ccc(F)cc1)CCS2

**A:**
1. +A
2. +A

**Q:** Consider the compound COCCCNC(=O)c1ccc2c(c1)N(C(=O)C(C)C)CCS2 . State its measured rCB2 EC50 range.
**A:** −E

----------
Tested target: rat CB2 receptor (rCB2) (Rattus norvegicus, UniProt Q9QZN9)
Assay summary: cell-based
Format: cell-based
Recorded conditions: intracellular cAMP, CHO-K1 cells, NKH-477 prestimulated; + agonist, − inverse agonist
Result type: rCB2 EC50 range

Entry smiles: CC(C)CNC(=O)c1ccc2c(c1)N(C(=O)c1ccc(F)cc1)CCS2
Tested target: rat CB2 receptor (rCB2) (Rattus norvegicus, UniProt Q9QZN9)
Result type: rCB2 EC50 range
Recorded measurement: −E
//
Entry smiles: CC(C)(C)c1noc(-c2ccc3c(c2)N(S(=O)(=O)c2ccc(F)cc2)CCS3)n1
Tested target: rat CB2 receptor (rCB2) (Rattus norvegicus, UniProt Q9QZN9)
Result type: rCB2 EC50 range
Recorded measurement: +B
//
Entry smiles: CCN(CC)C(=O)c1ccc2c(c1)N(S(=O)(=O)c1ccc(C(F)(F)F)cc1)CCS2
Tested target: rat CB2 receptor (rCB2) (Rattus norvegicus, UniProt Q9QZN9)
Result type: rCB2 EC50 range
Recorded measurement: +C
//
Entry smiles: CCc1noc(-c2ccc3c(c2)N(S(=O)(=O)c2ccccc2)CCS3)n1
Tested target: rat CB2 receptor (rCB2) (Rattus norvegicus, UniProt Q9QZN9)
Result type: rCB2 EC50 range
Recorded measurement: +A
//
Entry smiles: Cc1nnc(-c2ccc3c(c2)N(S(=O)(=O)c2cn(C)cn2)CCS3)o1
Tested target: rat CB2 receptor (rCB2) (Rattus norvegicus, UniProt Q9QZN9)
Result type: rCB2 EC50 range
Recorded measurement: +D
//
Entry smiles: CC(C)(C)c1noc(-c2ccc3c(c2)N(S(=O)(=O)c2ccccc2)CCS3)n1
Tested target: rat CB2 receptor (rCB2) (Rattus norvegicus, UniProt Q9QZN9)
Result type: rCB2 EC50 range
Recorded measurement: +A
//
Entry smiles: CC(C)(C)NC(=O)c1ccc2c(c1)N(C(=O)c1ccc(F)cc1)CCS2
Tested target: rat CB2 receptor (rCB2) (Rattus norvegicus, UniProt Q9QZN9)
Result type: rCB2 EC50 range
Recorded measurement: −E
//
Entry smiles: CC(C)C(=O)N1CCSc2ccc(C(=O)NC3CCCC3)cc21
Tested target: rat CB2 receptor (rCB2) (Rattus norvegicus, UniProt Q9QZN9)
Result type: rCB2 EC50 range
Recorded measurement: −E
//
Entry smiles: CC(C)C(=O)N1CCSc2ccc(C(=O)NC(C)(C)C)cc21
Tested target: rat CB2 receptor (rCB2) (Rattus norvegicus, UniProt Q9QZN9)
Result type: rCB2 EC50 range
Recorded measurement: +D
//
Entry smiles: O=S(=O)(c1ccc(C(F)(F)F)cc1)N1CCSc2ccc(-c3nnc(-c4ccccc4)o3)cc21
Tested target: rat CB2 receptor (rCB2) (Rattus norvegicus, UniProt Q9QZN9)
Result type: rCB2 EC50 range
Recorded measurement: +A

Please give rCB2 EC50 range, item by item, for the list that follows.
1. O=S(=O)(c1ccc(F)cc1)N1CCSc2ccc(-c3nnc(-c4ccccc4)o3)cc21
2. CC1(C)CCN(S(=O)(=O)c2ccccc2)c2cc(C(=O)N3CCCCC3)ccc2S1
3. COCCCNC(=O)c1ccc2c(c1)N(S(=O)(=O)c1ccccc1)CCS2
4. O=C(c1ccc2c(c1)N(S(=O)(=O)c1ccc(F)cc1)CCS2)N1CCCCC1
5. O=C(NC1CCCC1)c1ccc2c(c1)N(S(=O)(=O)c1ccccc1)CCS2
6. CCC(=O)N1CCSc2ccc(C(=O)NC3CCCC3)cc21
7. O=S(=O)(c1ccc(C(F)(F)F)cc1)N1CCSc2ccc(-c3nc4ccccc4o3)cc21

**A:**
["+B", "+C", "+B", "+C", "+B", "−E", "+B"]

----------
Tested target: rat CB2 receptor (rCB2) (Rattus norvegicus, UniProt Q9QZN9)
Assay summary: cell-based
Format: cell-based
Recorded conditions: intracellular cAMP, CHO-K1 cells, NKH-477 prestimulated; + agonist, − inverse agonist
Result type: rCB2 EC50 range

Entry smiles: O=C(NC12CC3CC(CC(C3)C1)C2)c1ccc2c(c1)N(C(=O)c1ccc(Cl)cc1)CCS2
Recorded measurement: −D
//
Entry smiles: CC(C)(C)c1noc(-c2ccc3c(c2)N(S(=O)(=O)c2ccc(C(F)(F)F)cc2)CCS3)n1
Recorded measurement: +B
//
Entry smiles: O=C(c1ccc2c(c1)N(S(=O)(=O)c1ccc(C(F)(F)F)cc1)CCS2)N1CCOCC1
Recorded measurement: +C
//
Entry smiles: O=C(c1ccc2c(c1)N(S(=O)(=O)c1ccccc1)CCS2)N1CCCCC1
Recorded measurement: +C

----------
Tested target: UniProtKB P34972
Assay summary: cell-based
Assay type: cell-based
Recorded conditions: intracellular cAMP, CHO-K1 cells, NKH-477 prestimulated; + agonist, − inverse agonist
Result type: hCB2 EC50 range

For orientation, consider the following solved cases.
Entry smiles: CC(C)NC(=O)c1ccc2c(c1)N(S(=O)(=O)c1ccccc1)CCS2
hCB2 EC50 range: +C
--
Entry smiles: CC(C)CNC(=O)c1ccc2c(c1)N(C(=O)c1ccccc1)CCS2
hCB2 EC50 range: −E
--
Entry smiles: CC(C)C(=O)N1CCSc2ccc(C(=O)NC3CCCC3)cc21
hCB2 EC50 range: +E
--
Entry smiles: O=C(NC1CCCC1)c1ccc2c(c1)N(S(=O)(=O)c1ccc(F)cc1)CCS2
hCB2 EC50 range: +B

Now for the compound whose hCB2 EC50 range we want.
**Q:** Consider the compound CCc1noc(-c2ccc3c(c2)N(S(=O)(=O)c2ccccc2)CCS3)n1 . State its measured hCB2 EC50 range.
**A:** +B

----------
Tested target: human CB2 receptor (hCB2) (Homo sapiens, UniProt P34972)
Assay summary: cell-based
Format: cell-based
Recorded conditions: intracellular cAMP, CHO-K1 cells, NKH-477 prestimulated; + agonist, − inverse agonist
Result type: hCB2 EC50 range

For orientation, consider the following solved cases.
Entry smiles: O=C(c1ccc2c(c1)N(S(=O)(=O)c1ccccc1)CCS2)N1CCCCC1
Recorded measurement: +D
--
Entry smiles: Cc1ccc(C(=O)N2CCSc3ccc(C(=O)NC45CC6CC(CC(C6)C4)C5)cc32)cc1
Recorded measurement: −E
--
Entry smiles: CC(C)C(=O)N1CCSc2ccc(C(=O)NC(C)(C)C)cc21
Recorded measurement: +D
--
Entry smiles: O=C(NC1CCCC1)c1ccc2c(c1)N(C(=O)c1ccccc1)CCS2
Recorded measurement: −E
--
Entry smiles: COCCCNC(=O)c1ccc2c(c1)N(S(=O)(=O)c1ccc(F)cc1)CCS2
Recorded measurement: +C
--
Entry smiles: O=C(c1ccc2c(c1)N(S(=O)(=O)c1ccccc1)CCS2)N1CCOCC1
Recorded measurement: +D
--
Entry smiles: O=C(c1ccc2c(c1)N(S(=O)(=O)c1ccc(F)cc1)CCS2)N1CCCCC1
Recorded measurement: +C
--
Entry smiles: O=C(c1ccc2c(c1)N(S(=O)(=O)c1ccc(C(F)(F)F)cc1)CCS2)N1CCCC1
Recorded measurement: +E
--
Entry smiles: CC1(C)CCN(S(=O)(=O)c2ccccc2)c2cc(C(=O)N3CCOCC3)ccc2S1
Recorded measurement: +E
--
Entry smiles: CC(C)(C)c1noc(-c2ccc3c(c2)N(S(=O)(=O)c2ccc(F)cc2)CCS3)n1
Recorded measurement: +B

Please give hCB2 EC50 range, item by item, for the list that follows.
1. CC(C)CNC(=O)c1ccc2c(c1)N(S(=O)(=O)c1ccc(Cl)cc1)CCO2
2. CC(C)(C)c1noc(-c2ccc3c(c2)N(S(=O)(=O)c2ccccc2)CCS3)n1
3. COc1ccc(C(=O)N2CCSc3ccc(C(=O)NC4CCCC4)cc32)cc1
4. COc1ccc(C(=O)N2CCSc3ccc(C(=O)NC(C)C)cc32)cc1
5. O=C(NC1CCCC1)c1ccc2c(c1)N(S(=O)(=O)c1ccccc1)CCS2
6. O=S(=O)(c1ccc(F)cc1)N1CCSc2ccc(-c3nnc(-c4ccccc4)o3)cc21
7. O=C(NC1CCCC1)c1ccc2c(c1)N(S(=O)(=O)c1ccc(F)cc1)CCO2

**A:**
1: +B; 2: +C; 3: −E; 4: −E; 5: +C; 6: +C; 7: +B

Please give hCB2 EC50 range, item by item, for the list that follows.
1. CC(C)CNC(=O)c1ccc2c(c1)N(S(=O)(=O)c1ccc(F)cc1)CCS2
2. O=S(=O)(c1ccc(C(F)(F)F)cc1)N1CCSc2ccc(-c3nc(-c4cccc(C(F)(F)F)c4)no3)cc21
3. C[C@@H](NC(=O)c1ccc2c(c1)N(S(=O)(=O)c1ccccc1)CCC(C)(C)S2)C(C)(C)C
4. CCN(CC)C(=O)c1ccc2c(c1)N(S(=O)(=O)c1ccc(C(F)(F)F)cc1)CCS2

**A:**
1: +B; 2: +D; 3: +D; 4: +C

Please give hCB2 EC50 range, item by item, for the list that follows.
1. COCCCNC(=O)c1ccc2c(c1)N(C(=O)c1ccc(Cl)cc1)CCS2
2. COCCCNC(=O)c1ccc2c(c1)N(C(=O)c1ccc(OC)cc1)CCS2
3. O=C(c1ccc2c(c1)N(S(=O)(=O)c1ccccc1)CCS2)N1CCCC1
4. O=S(=O)(c1ccc(F)cc1)N1CCSc2ccc(-c3nc(-c4ccccn4)no3)cc21
5. CC(C)CNC(=O)c1ccc2c(c1)N(S(=O)(=O)c1ccccc1)CCO2

**A:**
["−E", "−E", "+D", "+C", "+C"]
